This listing pairs compounds with measured pIC50.
biological target: APOL1 (Homo sapiens, UniProt O14791); assay: MultiTox-Fluor Multiplex Cytotoxicity Assay in tet-inducible APOL1 T-REx-HEK293 cells (cell rescue, ratio of dead to live cells); settings: tet-inducible transgenic APOL1 T-REx-HEK293 cell lines, 50 ng/mL tet, 24 hours; read-out: IP50 (i.e., IC50 for cell proliferation)
pIC50: −log10 of the molar value.

Some entries whose results are on file:
COMPOUND	pIC50
CCc1cc2c(s1)CCO[C@@]21CCN(C[C@H]2C[C@@H](NC(=O)c3ncccc3O)C2)[C@@H](C)C1 [Compound 345]	6.30 to 7.00
C[C@H]1C[C@@]2(CCN1Cc1ccccc1F)OCCc1c2sc(Cl)c1CO [Compound 713]	6.30 to 7.00
CCc1cc2c(s1)CCOC21CCN(Cc2c[nH]cn2)CC1 [Compound 1141]	6.00 to 6.30

Notebook: CCc1cc2c(s1)CCOC21CCN(Cc2cn(CCC(=O)NCC(C)O)nn2)CC1 (centres unmarked) [Compound 1102] , pIC50 read as 6.00 to 6.30

Form field pIC50, entry Cc1cc2c(s1)CCO[C@@]21CCN(CC(O)C(N)=O)[C@@H](C)C1 (some centres unmarked) [Compound 501] : 6.30 to 7.00

So, CCc1cc2c(s1)CCO[C@@]21CCN(Cc2cn(CC(CO)CC3CCOCC3)nn2)[C@@H](C)C1 (some centres unmarked) [Compound 121] ? Its pIC50 was > 7.00

The compound listed as C[C@H]1C[C@@]2(CCN1Cc1cn(CCS(C)(=O)=O)nn1)OCCc1c2sc(C(F)(F)F)c1C(=O)NCC1CC1 [Compound 1008] shows pIC50 equal to 6.00 to 6.30

Summary for this compound, C[C@H]1C[C@@]2(CCN1Cc1cccnc1)OCCc1cc(Cl)sc12 [Compound 639] : pIC50 is > 7.00

---

biological target: APOL1 (Homo sapiens); assay: MultiTox-Fluor Multiplex Cytotoxicity Assay in tet-inducible APOL1 T-REx-HEK293 cells (cell rescue, ratio of dead to live cells); details: tet-inducible transgenic APOL1 T-REx-HEK293 cell lines, 50 ng/mL tet, 24 hours; read-out: IP50 (i.e., IC50 for cell proliferation)
READOUT TYPE: IC50

# example entries with known answers
MOLECULE	SUBJECT OF TEST	RESULT
CCC1=CC2=C(CCO[C@@]23CCN(Cc2cn(CCS(C)(=O)=O)nn2)[C@@H](C)C3)S1(=O)=O	APOL1 (Homo sapiens)	100 to 500 nM
CCc1cc2c(s1)CCO[C@@]21CCN(CC(=O)C(C)(C)C)[C@@H](C)C1	APOL1 (Homo sapiens)	500 to 1000 nM
C[C@H]1C[C@@]2(CCN1Cc1cn(CC(C)(CO)CO)nn1)OC[C@](O)(C(F)F)c1cc(Cl)sc12	APOL1 (Homo sapiens)	< 100 nM

response.value for CCc1cc2c(s1)CCO[C@@]21CCN(Cc2cn(CC3(CO)CC3)nn2)[C@@H](C)C1 (field: IC50) = 100 to 500 nM

Recorded result, CCc1cc2c(s1)CCO[C@@]21CCN(Cc2cn(CC3(S(C)(=O)=O)CCCC3)nn2)[C@@H](C)C1 , IC50: < 100 nM

// IC50 value for CS(=O)(=O)CCn1cc(CN2CCC3(CC2)OCCc2cc(Cl)sc23)cn1 : 100 to 500 nM

Record summary for CCc1cc2c(s1)CCO[C@@]21CCN(C[C@H]2C[C@@H](NC(=O)Cc3cc(C)cc(F)c3)C2)[C@@H](C)C1 : reported IC50 = < 100 nM

Given item CCc1cc2c(s1)CCO[C@@]21CCN(C[C@H]2C[C@@H](NS(=O)(=O)CC(=O)OC)C2)[C@@H](C)C1 , the value recorded as its IC50 is 500 to 1000 nM

Notebook: C[C@H]1C[C@@]2(CCN1Cc1cnn(CCCC(N)=O)c1)OC[C@@H](O)c1cc(C(F)(F)F)sc12 , IC50 read as < 100 nM

In plain terms, CCc1cc2c(s1)CCO[C@@]21CCN(Cc2cn(CCc3cn(C)cn3)nn2)[C@@H](C)C1 has a documented IC50 of 100 to 500 nM

Briefly, IC50 measured for CCc1cc2c(s1)CCOC21CCN(Cc2csc(-c3cccnc3)n2)CC1 : 500 to 1000 nM

Value of measured IC50 for the entry C[C@H]1C[C@@]2(CCN1Cc1cnccn1)OCCc1cc(Cl)sc12 : 100 to 500 nM

Field IC50 (entry COc1ccc(CN2CC[C@]3(C[C@@H]2C)OCCc2c3sc(Cl)c2CO)cc1OCC(N)=O ) reads < 100 nM

---

Target: APOL1 (Homo sapiens)
Assay: MultiTox-Fluor Multiplex Cytotoxicity Assay in tet-inducible APOL1 T-REx-HEK293 cells (cell rescue, ratio of dead to live cells)
Conditions: tet-inducible transgenic APOL1 T-REx-HEK293 cell lines, 50 ng/mL tet, 24 hours; read-out: IP50 (i.e., IC50 for cell proliferation)
Procedure: The MultiTox-Fluor Multiplex Cytotoxicity Assay is a single-reagent-addition, homogeneous, fluorescence assay that measures the number of live and dead cells simultaneously in culture wells. […] The MultiTox reagent was added to each well and placed back in the incubator for an additional 30 minutes. The plate was read on the EnVision plate reader. A ratio of dead to live cells was used to normalize, and data was imported, analyzed, and fit using Genedata Screener (Basel, Switzerland) software. […]
// IC50 lookup, one value per entry

Answered cases to consult:
COMPOUND	IC50
CCc1cc2c(s1)CCO[C@@]21CCN(C[C@H]2C[C@@H](NC(=O)C(O)CO)C2)[C@@H](C)C1 (stereo partly shown)	100 to 500 nM
CCc1cc2c(s1)CCO[C@]21CCN(Cc2cn(CCS(C)(=O)=O)nn2)[C@H](C)C1	500 to 1000 nM
CCc1cc2c(s1)CCO[C@@]21CCN(Cc2cn(CC(CC)(CC)OC)nn2)[C@@H](C)C1	< 100 nM
COCCc1ncc(CN2CC[C@]3(C[C@@H]2C)OCCc2c3sc(Cl)c2CO)cn1	100 to 500 nM
CCc1cc2c(s1)CCO[C@@]21CCN(C[C@H]2C[C@@H](NS(=O)(=O)Cc3ccccc3)C2)[C@@H](C)C1	< 100 nM
CCc1cc2c(s1)CCO[C@@]21CCN(Cc2cn(Cc3ccnnc3)nn2)[C@@H](C)C1	< 100 nM

Lab note: measured IC50 of CCc1cc2c(s1)CCO[C@@]21CCN(Cc2nc3ccccc3[nH]2)[C@@H](C)C1 was 100 to 500 nM

---

Biological target: APOL1 (Homo sapiens)
Sequence (O14791 1-398 S342G/I384M): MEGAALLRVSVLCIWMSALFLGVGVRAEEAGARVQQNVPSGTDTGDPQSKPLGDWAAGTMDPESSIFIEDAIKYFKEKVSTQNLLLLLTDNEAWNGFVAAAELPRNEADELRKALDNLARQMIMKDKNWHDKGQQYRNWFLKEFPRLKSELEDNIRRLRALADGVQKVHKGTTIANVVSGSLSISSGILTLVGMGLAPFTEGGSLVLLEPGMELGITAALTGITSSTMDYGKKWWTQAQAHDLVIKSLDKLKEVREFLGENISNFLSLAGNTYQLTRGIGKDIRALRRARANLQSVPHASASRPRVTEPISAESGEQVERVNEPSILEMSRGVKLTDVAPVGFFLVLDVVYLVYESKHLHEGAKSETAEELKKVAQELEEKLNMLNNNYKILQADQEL
Assay: MultiTox-Fluor Multiplex Cytotoxicity Assay in tet-inducible APOL1 T-REx-HEK293 cells (cell rescue, ratio of dead to live cells)
Settings: tet-inducible transgenic APOL1 T-REx-HEK293 cell lines, 50 ng/mL tet, 24 hours; read-out: IP50 (i.e., IC50 for cell proliferation)
READOUT TYPE: IC50

Worked cases, IC50 given:
MOLECULE	RESULT
C[C@H]1C[C@@]2(CCN1Cc1cn[nH]c1)OC[C@@H](O)c1cc(C(F)(F)F)sc12	< 100 nM
CCc1cc2c(s1)CCO[C@@]21CCN(Cc2cn(CC3CCCN(S(C)(=O)=O)C3)nn2)[C@@H](C)C1 (stereo partly drawn)	100 to 500 nM
CCc1cc2c(s1)CCO[C@@]21CCN(Cc2c[nH]nn2)[C@@H](C)C1	< 100 nM
C[C@H]1C[C@@]2(CCN1Cc1cnn(CC(O)CO)c1)OCCc1c2sc(C(F)(F)F)c1CO (stereo partly drawn)	< 100 nM

Measured IC50 of C#CCN1CC[C@]2(C[C@@H]1C)OCCc1cc(Cl)sc12 : 500 to 1000 nM

Given item CNS(=O)(=O)CCn1cc(CN2CCC3(CC2)OCC(C)(C)c2sc(Cl)cc23)cn1 , the value recorded as its IC50 is < 100 nM

For this molecule ( CCc1cc2c(s1)CCO[C@@]21CCN(C[C@H]2C[C@@H](NC(=O)C3CC3C(=O)N(C)C)C2)[C@@H](C)C1 (stereo partly drawn) ), measured IC50 is 100 to 500 nM

Per the records, this molecule ( CCc1cc2c(s1)CCOC21CCN(Cc2cnc(NC(=O)COCCOC)s2)CC1 ) has IC50 equal to 100 to 500 nM

Recorded values, source patent US20250171459A1.
